I'd appreciate it if you could supply activity, negative = inhibition values for the items below.
experimental system: Cytochrome P450 3A4 (Homo sapiens) (UniProt P08684)
Sequence (P08684 whole entry, looked up): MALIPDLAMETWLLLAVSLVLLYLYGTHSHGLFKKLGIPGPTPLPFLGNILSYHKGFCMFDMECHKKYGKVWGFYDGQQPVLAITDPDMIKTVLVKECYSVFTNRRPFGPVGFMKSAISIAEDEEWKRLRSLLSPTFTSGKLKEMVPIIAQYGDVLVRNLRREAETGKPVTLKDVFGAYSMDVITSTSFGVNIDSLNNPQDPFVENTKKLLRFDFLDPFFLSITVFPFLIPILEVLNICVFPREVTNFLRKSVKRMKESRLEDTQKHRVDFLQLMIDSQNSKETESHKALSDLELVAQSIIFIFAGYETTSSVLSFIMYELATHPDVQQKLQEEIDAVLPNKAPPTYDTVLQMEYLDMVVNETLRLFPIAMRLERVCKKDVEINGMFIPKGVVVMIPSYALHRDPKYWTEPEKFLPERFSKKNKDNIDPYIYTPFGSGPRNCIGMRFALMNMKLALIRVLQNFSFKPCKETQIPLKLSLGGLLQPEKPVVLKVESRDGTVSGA
test name: Cytochrome panel assay with activity outcomes; further: on the % scale 0 is the no-effect control and ±100 the full control effect
reported conditions: recombinant CYP, pro-luciferin dealkylation, luminescence, p450-cyp3a4; series mostly up to 57.1 µM
In all, about 16,000 compounds went through this assay and about 5,100 (32%) were called active. Another 25% or so got no clear call; they are omitted. This is one part of the list.

Please give activity, negative = inhibition, item by item, for the list that follows.
1. C[N+](C)(C)c1nc(N)nc2c1ncn2[C@H]1O[C@@H](CO)[C@@H](O)[C@H]1O
2. O=C(O)c1ccc(Nc2ccnc3cc(Cl)ccc23)cc1O
3. NN(CC(=O)O)CC(=O)O

1. 16.1% [at 11.4 µM] (inactive)
2. -7.77% [at 11.4 µM] (inactive)
3. -4.66% [at 11.4 µM] (inactive)

Please give activity, negative = inhibition, item by item, for the list that follows.
1. CC1CCN(CCCCOc2ccccc2[N+](=O)[O-])CC1
2. O=C(O)[C@H](Cc1cc(I)c(O)c(I)c1)C1CCCCC1
3. COC(=O)c1ccc(N2CCN(CC(=O)c3ccc(-c4ccccc4)cc3)CC2)c([N+](=O)[O-])c1

1: -4.5% [at 2.29 µM] (inactive); 2: -12.6% [at 11.4 µM] (inactive); 3: 15.7% [at 2.29 µM] (inactive)

====

experimental system: Cytochrome P450 3A4 (Homo sapiens) (UniProt P08684)
test name: Cytochrome panel assay with activity outcomes; further: on the % scale 0 is the no-effect control and ±100 the full control effect
reported conditions: recombinant CYP, pro-luciferin dealkylation, luminescence, p450-cyp3a4; series mostly up to 57.1 µM
The campaign covered roughly 16,000 compounds. About 5,100 (32%) were called active. Inconclusive results (about 25%) are left out. The list shows a part of the results.
property measured: activity, negative = inhibition

Solved cases (5 shown):
{"molecule": "O=S(=O)(O)[C@@H](CO)c1ccccc1 (tested in a mixture with another compound)", "readout value": "-1.16% [at 11.4 µM] (inactive)"}
{"molecule": "COc1ccc(C(=O)Nc2ccc(NC(=O)c3ccco3)c(Cl)c2)cc1OC", "readout value": "-24% [at 11.4 µM] (inactive)"}
{"molecule": "CN(C)c1ccc2nc3c(C(=O)O)cc(=O)c(O)c-3oc2c1", "readout value": "-10.3% [at 11.4 µM] (inactive)"}
{"molecule": "O=C(O)c1ccccc1N[C@H](c1ccccc1)c1ccc2cccnc2c1O", "readout value": "-13.5% [at 11.4 µM] (inactive)"}
{"molecule": "Cc1ccc(/C=C/c2nnc(-c3cccs3)o2)cc1", "readout value": "6.75% [at 2.29 µM] (inactive)"}

Please give activity, negative = inhibition, item by item, for the list that follows.
1. CO[C@@H]1COC(=O)[C@H]2CCCN2C(=O)[C@@H](C)COC(=O)C/C=C\[C@H]1C
2. O=C1[C@@H]2[C@@H](C(=O)N1c1ccc(OCc3ccccc3)cc1)[C@@H]1c3ccccc3[C@@H]2[n+]2ccccc21
3. O=C(O)c1ccccc1C1c2ccccc2Oc2ccccc21
4. NCC(=O)Nc1ccc(Cl)cc1C(=O)c1ccc[nH]1
5. CCn1c(C)nc2cc(S(=O)(=O)C(F)F)ccc21
6. CC1CCN(S(=O)(=O)c2ccc3c(c2)C(=NO)c2cc(S(=O)(=O)N4CCC(C)CC4)ccc2-3)CC1

1: -15.8% [at 11.4 µM] (inactive); 2: -9.33% [at 11.4 µM] (inactive); 3: 26.1% [at 11.4 µM] (inactive); 4: -21.6% [at 11.4 µM] (inactive); 5: 9.09% [at 11.4 µM] (inactive); 6: -0.656% [at 2.29 µM] (inactive)
